Just for reference, ChEMBL document CHEMBL1139431 is where these values come from.

Test system: Escherichia coli
Test: Inhibition of Escherichia coli beta-glucuronidase at 1000 uM
Endpoint name: inhibition

| Mol smiles | Endpoint name | Val |
| --- | --- | --- |
| O=C(O)[C@H]1NC[C@@H](O)[C@H](O)[C@H]1O | inhibition | 2.6% |
| O=C(O)[C@H]1NCC=C[C@H]1O | inhibition | 3.3% |
| O=C(O)[C@@H]1NCCC[C@H]1O | inhibition | 20% |
| O=C(O)[C@H]1NCC=C[C@@H]1O | inhibition | 2% |
| O=C(O)[C@H]1NC[C@@H](O)[C@@H](O)[C@@H]1O | inhibition | 1% |
| O=C(O)[C@@H]1NC[C@H](O)[C@@H](O)[C@@H]1O | inhibition | 4.2% |
| O=C(O)[C@@H]1NC[C@H](O)[C@@H](O)[C@H]1O | inhibition | 5.2% |
| O=C(O)[C@@H]1NC[C@@H](O)[C@@H](O)[C@@H]1O | inhibition | 1.2% |
| O=C(O)[C@H]1NC[C@@H](O)[C@H](O)[C@@H]1O | inhibition | 1.1% |
